Tested on: non small cell lung cancer (NSCLC) cell lines
Assay Text: cells
Condition Info: Homo sapiens, A549, 72 h, read-out: Average IC50 (μM)
Outcome Measure: IC50 (µM)
Please respond with the number in µM and leave the unit unwritten.

### Prompt Read off the recorded IC50 for CNC(=O)c1ccc(Nc2nc(OC3CCCC3)c3c(-c4ccc(O)cc4)c[nH]c3n2)c(OC)c1 [Compound 3]
### Response 0.05

* * *

Each item that follows carries a reported IC50.
Tested on: breast cancer cell lines
Assay Text: cells
Condition Info: Homo sapiens, MDA-MB-231, 96 h, read-out: Growth Inhibition IC50
Your answer is read as nM, so omit the unit and give the number.

CNC(=O)c1ccc(Nc2nc(OC(C)C)c3c(-c4ccc5nc(C)oc5c4)c[nH]c3n2)c(OC)c1 [Compound 125] = 31

### Prompt Hello, please tell me recorded IC50 for this one: CNC(=O)c1ccc(Nc2nc(OC3CCCC3)c3c(-c4ccc(O)cc4)c[nH]c3n2)c(OC)c1 [Compound 3]
### Response 38

* * *

Tested on: breast cancer cell lines
Assay Text: cells
Condition Info: Homo sapiens, HCC38, 96 h, read-out: Growth Inhibition IC50
Some compounds, each annotated with its measured pIC50.
Lab note — pIC50 values are minus log10 of concentrations in M.

CNC(=O)c1ccc(Nc2nc(OC(C)C)c3c(-c4ccc5nc(C)oc5c4)c[nH]c3n2)c(OC)c1 = 7.92

Here is another compound to look at.
### Prompt Consider the compound `CNC(=O)c1ccc(Nc2nc(OC3CCCC3)c3c(-c4ccc(O)cc4)c[nH]c3n2)c(OC)c1` . State its measured pIC50.
### Response 7.33

* * *

Tgt: CLK1 (Homo sapiens (Human), UniProt P49759)
Sequence (P49759 whole entry): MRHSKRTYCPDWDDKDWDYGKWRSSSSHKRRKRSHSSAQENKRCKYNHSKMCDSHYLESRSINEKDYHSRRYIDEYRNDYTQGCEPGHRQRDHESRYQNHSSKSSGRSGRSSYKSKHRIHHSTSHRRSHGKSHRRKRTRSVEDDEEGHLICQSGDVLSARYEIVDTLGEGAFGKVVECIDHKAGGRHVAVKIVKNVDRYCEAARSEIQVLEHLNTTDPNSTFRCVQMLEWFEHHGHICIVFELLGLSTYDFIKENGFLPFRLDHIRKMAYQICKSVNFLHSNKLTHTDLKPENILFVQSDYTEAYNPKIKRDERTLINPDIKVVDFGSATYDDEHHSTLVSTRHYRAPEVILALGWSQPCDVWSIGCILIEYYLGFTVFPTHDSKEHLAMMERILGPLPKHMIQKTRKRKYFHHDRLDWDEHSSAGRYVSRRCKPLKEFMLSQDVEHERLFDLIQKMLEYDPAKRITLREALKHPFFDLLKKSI
Assay Text: biochemical
Condition Info: read-out: CLK1 (% Inh.), % inhibition at 3 μM
Outcome Measure: inhibition at 3 µM

Guide cases for inhibition at 3 µM, answers given:
CNC(=O)c1ccc(Nc2nc(OC3CCCC3)c3c(-c4cccnc4)c[nH]c3n2)c(OC)c1 = 96%
CNC(=O)c1ccc(Nc2nc(OC3CCC3)c3c(-c4ccc5nc(C)oc5c4)c[nH]c3n2)c(OC)c1 = 93%
CNC(=O)c1ccc(Nc2nc(OC3CCCC3)c3c(-c4ccc(OC)c(OC)c4)c[nH]c3n2)c(OC)c1 = 68%

Pending compound:
### Prompt // fetch inhibition at 3 µM given entry `CNC(=O)c1ccc(Nc2nc(OC3CCOCC3)c3c(-c4ccc5nc(C)oc5c4)c[nH]c3n2)c(OC(F)(F)F)c1`
### Response 101%

* * *

As shown below, each of these compounds has a reported IC50 value.
Tested on: breast cancer cell lines
Assay Text: cells
Condition Info: Homo sapiens, BT-20, 96 h, read-out: Growth Inhibition IC50
Please answer in the form of a number followed by its unit of measurement.

### Prompt Write down IC50 measured for item CNC(=O)c1ccc(Nc2nc(OC3CCCC3)c3c(-c4ccc(O)cc4)c[nH]c3n2)c(OC)c1 [Compound 3]
### Response 608 nM

### Prompt Please supply the value of reported IC50 for the item CNC(=O)c1ccc(Nc2nc(OC(C)C)c3c(-c4ccc5nc(C)oc5c4)c[nH]c3n2)c(OC)c1 [Compound 125]
### Response 44 nM

* * *

Tested on: breast cancer cell lines
Assay Text: cells
Condition Info: Homo sapiens, CAMA-1, 96 h, read-out: Growth Inhibition IC50
# IC50 annotations

CNC(=O)c1ccc(Nc2nc(OC3CCCC3)c3c(-c4ccc(O)cc4)c[nH]c3n2)c(OC)c1 = 10.7 µM

### Prompt Dear colleague, please send me the reported IC50 for `CNC(=O)c1ccc(Nc2nc(OC(C)C)c3c(-c4ccc5nc(C)oc5c4)c[nH]c3n2)c(OC)c1` when you can.
### Response 0.763 µM

// data source = patent US9623028B2
